Data provenance: patent US10383905B2

# test system: UniProt:P40763
# assay method text: EMSA of STAT3 binding to DNA in KARPAS cells
# Format: cell-based
# Set-up: endogenous in cells
# details: read-out: EC50 inhibition of the ability of STAT3 to bind to DNA
reported endpoint: EC50 (µM)
Provide the reading as a plain figure in µM.

q: Recorded EC50 of C=C(CO)C(=O)O[C@H]1CC(=C)[C@@H]2C[C@H](O)C(=C)[C@@H]2[C@H]2OC(=O)C(=C)[C@@H]21 , please.
a: 25

====

# test system: STAT3 (Homo sapiens)
# assay method text: Western Blot of STAT3 phosphorylation in KARPAS cells
# Format: cell-based
# Parameters: The cell line DU145 expresses pStat3 in a constitutive manner; endogenous in cells; host or cells: DU-145 (human prostate carcinoma, ATCC HTB-81)
# details: read-out: EC50 inhibition of the phosphorylation of STAT3
reported endpoint: EC50 (µM)
Express the result in µM but write the number alone.

q: Give the measured EC50 of C=C(CO)C(=O)O[C@H]1CC(=C)[C@@H]2C[C@H](O)C(=C)[C@@H]2[C@H]2OC(=O)C(=C)[C@@H]21 .
a: 25

====

# test system: STAT3 (Homo sapiens, UniProt P40763)
# Sequence (P40763 whole entry): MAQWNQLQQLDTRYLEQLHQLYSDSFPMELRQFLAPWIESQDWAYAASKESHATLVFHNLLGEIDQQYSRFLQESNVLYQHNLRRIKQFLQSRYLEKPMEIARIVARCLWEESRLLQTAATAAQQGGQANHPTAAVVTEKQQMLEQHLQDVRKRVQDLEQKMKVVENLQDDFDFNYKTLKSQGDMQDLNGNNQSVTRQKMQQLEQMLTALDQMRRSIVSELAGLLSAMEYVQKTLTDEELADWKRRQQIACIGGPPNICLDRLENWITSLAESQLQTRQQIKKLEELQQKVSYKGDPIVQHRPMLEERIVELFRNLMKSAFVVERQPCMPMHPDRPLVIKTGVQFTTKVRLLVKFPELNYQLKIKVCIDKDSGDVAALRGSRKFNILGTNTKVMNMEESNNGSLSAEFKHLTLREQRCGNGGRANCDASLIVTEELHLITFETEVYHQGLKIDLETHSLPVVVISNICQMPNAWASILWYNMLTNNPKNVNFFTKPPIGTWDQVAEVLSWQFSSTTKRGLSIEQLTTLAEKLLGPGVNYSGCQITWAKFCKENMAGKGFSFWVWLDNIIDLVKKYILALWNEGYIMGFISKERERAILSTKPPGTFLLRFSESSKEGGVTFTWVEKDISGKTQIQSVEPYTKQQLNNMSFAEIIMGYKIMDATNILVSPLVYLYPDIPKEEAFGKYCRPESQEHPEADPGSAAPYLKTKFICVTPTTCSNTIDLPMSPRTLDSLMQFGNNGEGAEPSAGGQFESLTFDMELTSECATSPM
# assay method text: EMSA of STAT3 binding to DNA in DU-145 cells
# Type: cell-based
# Set-up: The cell line DU145 expresses pStat3 in a constitutive manner; endogenous in cells; host or cells: DU-145 (human prostate carcinoma, ATCC HTB-81)
# details: read-out: EC50 inhibition of the ability of STAT3 to bind to DNA
reported endpoint: pEC50
Note: pEC50 values are expressed as the negative base-10 logarithm of concentration in M.

q: Which pEC50 reading was recorded for the compound C=C(CO)C(=O)O[C@H]1CC(=C)[C@@H]2C[C@H](O)C(=C)[C@@H]2[C@H]2OC(=O)C(=C)[C@@H]21 [cynaropicrin] ?
a: 4.60

====

# test system: STAT3 (Homo sapiens)
# assay method text: Western Blot of STAT3 phosphorylation in DU-145 cells
# Format: cell-based
# Parameters: The cell line DU145 expresses pStat3 in a constitutive manner; endogenous in cells; host or cells: DU-145 (human prostate carcinoma, ATCC HTB-81)
# details: read-out: EC50 inhibition of the phosphorylation of STAT3
reported endpoint: EC50 (µM)
Enter your answer as a number in µM; do not include the unit.

q: // EC50 lookup, key: C=C(CO)C(=O)O[C@H]1CC(=C)[C@@H]2C[C@H](O)C(=C)[C@@H]2[C@H]2OC(=O)C(=C)[C@@H]21 [cynaropicrin]
a: 25
